- target.entity: Calcium and integrin-binding protein 1 (Homo sapiens) (UniProt Q99828)
- Sequence (Q99828 whole entry, looked up): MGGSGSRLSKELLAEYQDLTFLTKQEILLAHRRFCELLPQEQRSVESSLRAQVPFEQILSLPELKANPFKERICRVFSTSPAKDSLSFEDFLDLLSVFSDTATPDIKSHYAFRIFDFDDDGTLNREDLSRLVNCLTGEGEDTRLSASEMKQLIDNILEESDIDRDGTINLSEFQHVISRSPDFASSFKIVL
- test.method.notes: Primary qHTS for Identification of Calcium Integrin Binding Protein 1 (CIB1) Competitor (AID 1508620);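 further: GST tagged CIB1 binding a fluorescein labelled alphaIIb integrin peptide tracer; top concentration of the series differs between compounds; on the % scale 0 is the no-effect control and ±100 the full control effect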
- settings: CIB1-GST / FITC-alphaIIb peptide fluorescence polarization; series mostly up to 114 µM
Inconclusive results are not listed. Active and inactive are the calls of the source. The call rests on the fitted dose curve; in most records, active means well fitted inhibition curve with a large enough effect; inconclusive means small, poorly fitted or top-dose-only effect; inactive means flat fitted curve, though single readings scatter.
measurement.kind: activity change, negative = inhibition

Example results:
* C=CC(=O)Nc1cc(-n2c(=O)ccc3cnc4ccc(-c5ccc(NS(C)(=O)=O)cc5)cc4c32)ccc1C | inactive
* CCCCNc1ncc(C(=O)NCc2ccc(-n3ccnc3)cc2)c(NC2CCC(O)CC2)n1 (configuration not stated) | inactive
* CN(C)C(=O)C(=O)c1cn(C)c2cc(Cl)c(C(=O)N3CCC(Cc4ccc(F)cc4)CC3)cc12 | inactive
* C=C1C(=O)OC2/C=C(/C)C3=CC(=O)C(C)(CC(OC(=O)/C(C)=C/COC(C)=O)C12)O3 (configuration not stated) | inactive

Which measured activity change, negative = inhibition value corresponds to N#Cc1cc(C2=Nc3ccc(Br)cc3NC(=O)C2)ccn1 ? inactive

Repeat with COC1=CC(=O)C=C(C)C12Oc1c(Cl)c(OC)cc(OC)c1C2=O (configuration not stated) inactive

Entry C[C@@H]1O[C@@H](O[C@H]2[C@H](O[C@H]3CC[C@@]4(C)C(CC[C@]5(C)C4C=C[C@]46OC[C@@]7(CCC(C)(C)C[C@H]74)[C@@H](O[C@@H]4O[C@@H](C)[C@H](O)[C@@H](O)[C@H]4O)C[C@]65C)[C@]3(C)CO)O[C@H](CO)[C@@H](O)[C@@H]2O[C@@H]2O[C@H](CO)[C@@H](O)[C@H](O)[C@H]2O)[C@H](O)[C@H](O)[C@H]1O (some centres not stated) please inactive

----------
- System: Tov-21-G
- test.method.notes: Primary qHTS to identify gynecologic anti-cancer compounds using libraries of approved drugs and bioactive compounds (AID 1345084); further: nearly all actives have a fitted effect of over 55% in size
- settings: Gynecologic cancer cell panel viability, ATPlite luminescence, 48 h; series mostly up to 57.5 µM
Records with an inconclusive call do not appear. Calls of active or inactive are those of the source. Calls follow the shape of the dose curve; as a rule, active = well fitted cell-killing curve with a large enough effect; inconclusive = small, poorly fitted or top-dose-only effect, or effect the other way; inactive = flat fitted curve, though single readings scatter.
measurement.kind: outcome

* CC(=O)O[C@@H]1C2=C(O)C(=O)[C@](C)(OC(C)=O)C(=O)C2=CO[C@@]12O[C@@H](C)CC[C@H]2OC(C)=O | inactive
* CS/C=C/C(=O)O[C@@H]1CCC2=CC(=O)C(=C(C)C)C[C@]2(C)[C@H]1C | inactive
* CC[C@H]1OC(=O)[C@H](C)[C@@H](O[C@H]2C[C@@](C)(OC)[C@@H](O)[C@H](C)O2)[C@H](C)[C@@H](O[C@H]2O[C@H](C)C[C@H](N(C)C)[C@H]2O)[C@](C)(O)C[C@@H](C)C(=O)[C@H](C)[C@@H](O)[C@]1(C)O | inactive

----------
- target.entity: Luciferin 4-monooxygenase (Photinus pyralis) (UniProt P08659)
- test.method.notes: Primary firefly luciferase (FLuc) qHTS assay for identification of artifact compounds. (AID 1845220);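 further: plate controls were DMSO vehicle for no effect and no enzyme for full effect; nearly all actives have a fitted effect of over 60% in size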
- settings: purified firefly luciferase, luminescence, 5 min; series mostly up to 54.1 µM
Calls of active or inactive are those of the source. Calls follow the shape of the dose curve; as a rule, active = well fitted inhibition curve with a large enough effect; inconclusive = small, poorly fitted or top-dose-only effect; inactive = flat fitted curve, though single readings scatter.
measurement.kind: activity change, negative = inhibition

• CC(=O)O[C@@H]1[C@@H](O)[C@H](O[C@@H]2[C@@H](O)[C@@H](O)[C@H](O[C@H]3[C@H](O[C@H]4[C@H](O[C@H]5CC[C@@]6(C)C(CC[C@]7(C)C6CC=C6[C@@H]8CC(C)(C)CC[C@]8(C(=O)O)CC[C@]67C)[C@]5(C)CO)O[C@H](CO)[C@@H](O)[C@@H]4O)OC[C@@H](O)[C@@H]3O)O[C@H]2C)OC[C@H]1O (stereo partly drawn) = -4.72% [at 11.6 µM] (inactive)
• CC(C)=CCCC1(C)C2CCC1(C)C(O)C2 (stereo not drawn) = inactive
• Nc1nc(Cl)nc2c1ncn2C1OC(CO)C(O)C1F (stereo not drawn) = inactive

----------
- test.method.notes: qHTS assay to identify inhibitors of the type 1 interferon - major histocompatibility complex class I in skeletal muscle: Counter screen cell viability and HiBit confirmation (AID 1347412); further: potency means the concentration at half of the fitted maximal effect; nearly all actives have a fitted effect of over 60% in size
- settings: iHSKM muscle cells + IFN-b, HiBiT or CellTiter-Glo, 24 h; HiBiT
Records with an inconclusive call do not appear. Activity calls are given as the source filed them. Calls follow the shape of the dose curve; as a rule, active = well fitted inhibition curve with a large enough effect; inconclusive = small, poorly fitted or top-dose-only effect; inactive = no such curve, though single readings can be large or run the other way.
measurement.kind: Potency

Potency lookup needed for COc1cccc(-c2cc(F)ccc2C2Cc3nc(N)nc(C)c3C(=O)N2)n1 (stereo not drawn) , thanks. 0.0222 µM (active)

Another compound to check: Cc1[nH]c2ccccc2c1CCNCc1ccc(/C=C/C(=O)NO)cc1 0.0625 µM (active)

Try this compound next: CN1CCN(C2CCN(C(=O)Nc3cc(Oc4ccc(NC(=O)C5(C(=O)Nc6ccc(F)cc6)CC5)c(F)c4)ccn3)CC2)CC1 4.97 µM (active)

What do you get for NC(=O)c1ccccc1Nc1ccnc(Nc2cccc(O)c2)n1 ? 4.97 µM (active)

Same question for COC(=O)Nc1cc(Nc2cc(NC3CC3)c3ncc(C#N)n3n2)c(Cl)c(N2CCN(C)CC2)c1 please. 7.01 µM (active)

Here is the next compound: COc1cccc(OCCCN)c1-c1cc(Nc2cnc(C#N)cn2)n[nH]1 15.7 µM (active)

Another compound: CCNC(=O)C#Cc1ccc2c(C(=Nc3ccc(CN(C)C)cc3)c3ccccc3)c(O)[nH]c2c1 17.6 µM (active)

Please answer likewise for C1=C/COCc2cc(ccc2OCCN2CCCC2)Nc2nccc(n2)-c2cccc(c2)COC/1 3.52 µM (active)

----------
- Test system: OV90
- test.method.notes: Primary qHTS to identify gynecologic anti-cancer compounds using libraries of approved drugs and bioactive compounds (AID 1345084); further: nearly all actives have a fitted effect of over 55% in size
- settings: Gynecologic cancer cell panel viability, ATPlite luminescence, 48 h; series mostly up to 57.5 µM
Records with an inconclusive call do not appear. Calls of active or inactive are those of the source. The call rests on the fitted dose curve; in most records, active means well fitted cell-killing curve with a large enough effect; inconclusive means small, poorly fitted or top-dose-only effect, or effect the other way; inactive means flat fitted curve, though single readings scatter.
Hi! Could you answer with just one of these? active, inactive

// outcome(item) with item = Cc1ccc(-c2ncc[nH]2)cc1NC(=O)c1ccc(OCc2ccccn2)cc1 inactive

Entry to check: CCCc1ccc(OCC(=O)N(Cc2nc(-c3cccnc3)no2)C(C)C)cc1 inactive

Then C=C1CO[C@@]2(O[C@H]3CC4C5CC=C6C[C@@H](O)C[C@@H](O[C@@H]7OC[C@H](O)[C@H](O[C@@H]8OC[C@@H](O)[C@H](O)[C@H]8O)[C@H]7O[C@@H]7O[C@@H](C)[C@H](OC(C)=O)[C@@H](OC(C)=O)[C@H]7OC(C)=O)[C@]6(C)C5CC[C@]4(C)[C@@H]3[C@@H]2C)[C@@H](O)[C@H]1OC1OC(C)C(O)C(O)C1O (some centres not stated) ? active

Another molecule: COc1ccc2c(NC(=O)Nc3cccc(C(F)(F)F)n3)ccnc2c1 inactive

Repeat with Cc1cn2cc(C(=O)N(C)CCO)cc(NC3CCOc4cccc(C)c43)c2n1 (configuration not stated) inactive

Try this molecule next: C[C@@H](Nc1ncnc2[nH]c(-c3ccc(O)cc3)cc12)c1ccccc1 inactive

Then this molecule: C=C(C)C(=O)OC1CC(CO)CCC/C(CO)=C/C2OC(=O)C(=C)C21 (configuration not stated) inactive

----------
- test.method.notes: P-glycoprotein substrates identified in KB-8-5-11 adenocarcinoma cell line, qHTS therapeutic library screen (AID 1346987); further: nearly all actives have a fitted effect of over 65% in size; further: potency means the concentration at half of the fitted maximal effect
- settings: KB-8-5-11 (P-gp overexpressing) viability, CellTiter-Glo, 72 h; series mostly up to 44.5 µM
Results filed as inconclusive are left out. Activity calls are given as the source filed them. Calls follow the shape of the dose curve; as a rule, active = well fitted inhibition curve with a large enough effect; inconclusive = small, poorly fitted or top-dose-only effect; inactive = flat fitted curve, though single readings scatter.
measurement.kind: Potency

- C1=Cc2ccccc2C(=C2CCN(CCCCc3nn[nH]n3)CC2)c2ccccc21: inactive
- C=C(C)C(=O)O[C@H]1[C@H]2C(=C)C(=O)O[C@@H]2/C=C(\CO)CC/C=C(/C=O)[C@@H]1O: inactive
- Cc1cc(C(=O)Nc2cc(Oc3ccc4nc(NC(=O)C5CC5)cn4n3)ccc2C)n(C)n1: 9.2 µM (active)
- C=C1/C(=C/C=C2\CCC[C@@]3(C)C2CCC3[C@H](C)/C=C/[C@@H](O)C2CC2)C[C@@H](O)C[C@@H]1O (some centres undefined): inactive

----------
- Test system: JEG-3
- test.method.notes: Primary qHTS to identify gynecologic anti-cancer compounds using libraries of approved drugs and bioactive compounds (AID 1345084); further: nearly all actives have a fitted effect of over 55% in size; on activity change, negative = cytotoxicity: on the % scale 0 is the no-effect control and ±100 the full control effect
- settings: Gynecologic cancer cell panel viability, ATPlite luminescence, 48 h; series mostly up to 57.5 µM
Records with an inconclusive call do not appear. Activity calls are given as the source filed them. Calls come from the whole dose curve; as a rule, active = well fitted cell-killing curve with a large enough effect; inconclusive = small, poorly fitted or top-dose-only effect, or effect the other way; inactive = flat fitted curve, though single readings scatter.
measurement.kind: activity change, negative = cytotoxicity

• Cc1cc(OCCCS(C)(=O)=O)cc(C)c1-c1cccc(COc2ccc(C3=CC(=O)NS3=O)cc2)c1 (stereo not drawn) = inactive
• CN(C)c1ccnc2sc3c(=O)n(N4CCCCCC4)cnc3c12 = inactive
• C[C@@H](O[C@H]1OCCN(Cc2nn(P(=O)(O)O)c(=O)[nH]2)[C@H]1c1ccc(F)cc1)c1cc(C(F)(F)F)cc(C(F)(F)F)c1 = inactive
• CC(C)S(=O)(=O)NC[C@H](C)c1ccc(-c2ccc(CCNS(C)(=O)=O)cc2)cc1 = inactive
• CN[C@@H]1[C@H](O[C@H]2[C@H](O[C@@H]3[C@@H](O)[C@H](O)[C@@H](N=C(N)N)[C@H](O)[C@H]3N=C(N)N)O[C@@H](C)[C@]2(O)CO)O[C@@H](CO)[C@H](O)[C@H]1O = inactive
• CC(C)(F)CC(NC(c1ccc(-c2ccc(S(C)(=O)=O)cc2)cc1)C(F)(F)F)C(=O)NC1(C#N)CC1 (stereo not drawn) = inactive

// below: activity change, negative = cytotoxicity requested for another molecule
So what does the record say about activity change, negative = cytotoxicity for C[C@@H](NC(=O)c1ccc(C#Cc2cccc(F)c2)cn1)C(C)(C)O ? inactive
